Target: glycogen synthase kinase 3β (GSK-3β) (Homo sapiens, UniProt P49841)
Construct: recombinant His-tagged GSK-3β
Sequence (P49841 whole entry): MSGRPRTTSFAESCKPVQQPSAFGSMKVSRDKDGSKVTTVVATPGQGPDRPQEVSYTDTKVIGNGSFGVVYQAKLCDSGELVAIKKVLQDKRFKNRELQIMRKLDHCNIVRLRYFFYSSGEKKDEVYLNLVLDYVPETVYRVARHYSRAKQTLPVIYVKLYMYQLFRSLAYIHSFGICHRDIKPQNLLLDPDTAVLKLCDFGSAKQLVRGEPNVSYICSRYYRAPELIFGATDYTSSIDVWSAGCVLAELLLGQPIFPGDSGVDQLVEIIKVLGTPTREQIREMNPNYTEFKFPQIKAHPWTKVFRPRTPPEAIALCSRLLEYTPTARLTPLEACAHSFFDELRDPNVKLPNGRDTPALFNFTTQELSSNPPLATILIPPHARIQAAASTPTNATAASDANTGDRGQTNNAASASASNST
Assay: BLI on immobilized GSK-3β; also DARTS in lysate and Kinase-Glo inhibition (IC50 […])
OBSERVATION TYPE: Kd (µM)

{"COMPOUND": "Cc1c(O)c(C)c2c(c1O)C(=O)C[C@@H](c1ccc(O)cc1)O2", "ASSAYED TARGET": "glycogen synthase kinase 3β (GSK-3β) (Homo sapiens, UniProt P49841)", "OBSERVATION TYPE": "Kd", "UNITS": "µM", "MEASURED RESULT": 634}
